System: JNK1 protein
Assay: Western assay of JNK1 protein levels in A549 cells
Format: cell-based, human
Conditions: t = 72 h, 300 nM for 20 hours then 200 nM for 4 hours
Method: In order to evaluate the activity of potential JNK-modulating oligonucleotides, human lung carcinoma cell line A549 (American Type Culture Collection, Rockville, Md. No. ATCC CCL-185) cells or other cell lines as indicated in the Examples, were grown and treated with oligonucleotides or control solutions as detailed below. After harvesting, cellular extracts were prepared and examined for specific JNK mRNA levels or JNK protein levels (i.e., Northern or Western assays, respectively). […]
Strand notation (5' to 3'): a small letter for the sugar, then the base; units joined by * are phosphorothioate-linked, units joined directly phosphodiester-linked; [ ] holds rarer units or linkages, { } end groups; capitals alone tell only the bases. e = 2'-O-(2-methoxyethyl) (MOE); [5mC] = 5-methylcytosine; d = 2'-deoxy (DNA)

- Substance: "15345 (antisense e[5mC]*eT*e[5mC]*eT*e[5mC]*eT*eG*eT*eA*eG*eG*e[5mC]*e[5mC]*e[5mC]*eG*e[5mC]*eT*eT*eG*eG) [compound 15345]"
  U: "%"
  Protein % Control: 87.8
- Substance: "15349 (antisense CTCTCTGTAGGCCCGCTTGG; sugars from the 5' end d9 e11, [5mC] at 12, 13, 14, 16, all phosphorothioate, methylation of C not given here) [compound 15349]"
  U: "%"
  Protein % Control: 56.5
- Substance: "15348 (antisense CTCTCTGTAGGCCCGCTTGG; sugars from the 5' end e11 d9, [5mC] at 1, 3, 5, all phosphorothioate, methylation of C not given here) [compound 15348]"
  U: "%"
  Protein % Control: 41.7

====

Known % EXPRESSION of a selection of substances
system: rat JNK2 mRNA; experiment: Northern assay of rat JNK2 (p54a) mRNA in A10 aortic smooth muscle cells; assay type: cell-based; details: rat JNK2 (p54a) mRNA in A10 cells, relative to LIPOFECTIN-only control
Strand notation (5' to 3'): a small letter for the sugar, then the base; units joined by * are phosphorothioate-linked, units joined directly phosphodiester-linked; [ ] holds rarer units or linkages, { } end groups; capitals alone tell only the bases. e = 2'-O-(2-methoxyethyl) (MOE); [5mC] = 5-methylcytosine; d = 2'-deoxy (DNA)

- Substance: "18264 (DNA eAeGe[5mC]eAeG*dA*dG*dT*dG*dA*dA*dA*dT*dA*d[5mC]*eAeAe[5mC]eTeT; antisense) [compound 18264]"
  % EXPRESSION / %: 48
- Substance: "18261 (antisense e[5mC]e[5mC]eAe[5mC]e[5mC]*dA*dG*d[5mC]*dT*d[5mC]*d[5mC]*d[5mC]*dA*dT*dG*eTeGe[5mC]eTe[5mC]) [compound 18261]"
  % EXPRESSION / %: 47
- Substance: "18259 (antisense eGe[5mC]eTe[5mC]eA*dG*dT*dG*dG*dA*d[5mC]*dA*dT*dG*dG*eAeTeGeAeG) [compound 18259]"
  % EXPRESSION / %: 15

====

Known % EXPRESSION JNK2 of a selection of substances
System: rat JNK2 mRNA
Test: Northern assay of rat JNK2 (p54a) mRNA in A10 aortic smooth muscle cells
Assay type: cell-based
Conditions: rat JNK2 mRNA, A10 cells, oligonucleotides targeted to rat JNK1
Protocol: In order to study the role of JNK proteins in animal models, oligonucleotides targeted to the genes encoding JNK1, JNK2 and JNK3 of Rattus norvegicus were prepared. These oligonucleotides are 2′-methoxyethoxy, phosphodiester/2′-hydroxyl, phosphorothioate/2′-methoxyethoxy, phosphodiester “gapmers” in which every cytosine residue is 5-methylcytosine (m5c). These antisense compounds were synthesized according to the methods of the disclosure. […]
Strand notation (5' to 3'): a small letter for the sugar, then the base; units joined by * are phosphorothioate-linked, units joined directly phosphodiester-linked; [ ] holds rarer units or linkages, { } end groups; capitals alone tell only the bases. e = 2'-O-(2-methoxyethyl) (MOE); [5mC] = 5-methylcytosine; d = 2'-deoxy (DNA)
Measured Property: % EXPRESSION JNK2 (%)

- Substance: "21859 (DNA e[5mC]eTe[5mC]eAeT*dG*dA*dT*dG*dG*d[5mC]*dA*dA*dG*d[5mC]*eAeAeTeTeA) [compound 21859]"
  Measured Property: "% EXPRESSION JNK2"
  Recorded Value: 106
- Substance: "21867 (DNA eAeGe[5mC]eTeT*d[5mC]*dG*dT*d[5mC]*dT*dA*d[5mC]*dG*dG*dA*eGeAeTe[5mC]e[5mC]; antisense) [compound 21867]"
  Measured Property: "% EXPRESSION JNK2"
  Recorded Value: 21
- Substance: "21868 (DNA e[5mC]eAe[5mC]eTe[5mC]*d[5mC]*dT*d[5mC]*dT*dA*dT*dT*dG*dT*dG*eTeGe[5mC]eTe[5mC]; antisense) [compound 21868]"
  Measured Property: "% EXPRESSION JNK2"
  Recorded Value: 112
- Substance: "21865 (DNA e[5mC]e[5mC]eAeTeT*dT*d[5mC]*dT*d[5mC]*d[5mC]*d[5mC]*dA*dT*dA*dA*eTeGe[5mC]eAe[5mC]; antisense) [compound 21865]"
  Measured Property: "% EXPRESSION JNK2"
  Recorded Value: 50
- Substance: "21862 (DNA e[5mC]eTeAeGeG*dG*dA*dT*dT*dT*d[5mC]*dT*dG*dT*dG*eGeTeGeTeG; antisense) [compound 21862]"
  Measured Property: "% EXPRESSION JNK2"
  Recorded Value: 133

This collection of values is drawn from patent US20040029823A1.
